pIC50 for assorted compounds
# System: HFF
# protocol-text: HCMV plaque assay was performed using HFF cells and effect was calculated as a percentage of reduction in number of plaques
# Type: functional, cell-based
# applied-conditions: Homo sapiens
pIC50: −log10 of the molar value.
readout-kind: pIC50

compound="CN1N=C(N)c2cn(C3C[C@@H](O)[C@@H](CO)O3)c3ncnc1c23 (some centres not stated)" measured_value="< 4.00"
compound="CN1N=C(N)c2cn([C@@H]3O[C@H](COP(=O)(O)O)[C@@H](O)[C@H]3O)c3ncnc1c23 [TRICIRIBINE PHOSPHATE]" measured_value=6.10
compound=CN1N=C(N)c2cn([C@H]3CC[C@@H](CO)O3)c3ncnc1c23 measured_value="< 4.00"
compound=CN1N=C(N)c2cn([C@@H]3O[C@H](CO)C[C@H]3O)c3ncnc1c23 measured_value="< 4.00"
compound="C[C@H]1OC(n2cc3c4c(ncnc42)N(C)N=C3N)[C@H](O)[C@@H]1O (some centres not stated)" measured_value="< 4.00"
compound="CN1N=C(N)c2cn(C3O[C@H](CO)[C@H]4O[C@H]34)c3ncnc1c23 (some centres not stated)" measured_value="< 4.00"
compound=CN1N=C(N)c2cn([C@H]3C=C[C@@H](CO)O3)c3ncnc1c23 measured_value="< 4.00"

* * *

# protocol-text: Antiviral activity was tested using an enzyme-linked immunosorbent assay (ELISA) to detect HSV-1 (herpes simplex virus type 1) using BSC-1 cells
# Assay type: functional, cell-based
# applied-conditions: Cercopithecidae
pIC50: −log10 of the molar value.
The entries below come with measured pIC50 values attached.
readout-kind: pIC50

compound=CN1N=C(N)c2cn([C@H]3C=C[C@@H](CO)O3)c3ncnc1c23 readout_kind=pIC50 op=< measured_value=4.00
compound=CN1N=C(N)c2cn([C@H]3CC[C@@H](CO)O3)c3ncnc1c23 readout_kind=pIC50 op=< measured_value=4.00
compound="CN1N=C(N)c2cn([C@@H]3O[C@H](COP(=O)(O)O)[C@@H](O)[C@H]3O)c3ncnc1c23 [TRICIRIBINE PHOSPHATE]" readout_kind=pIC50 op== measured_value=4.70
compound="C[C@H]1OC(n2cc3c4c(ncnc42)N(C)N=C3N)[C@H](O)[C@@H]1O (some centres not stated)" readout_kind=pIC50 op=< measured_value=4.00
compound=CN1N=C(N)c2cn([C@@H]3O[C@H](CO)C[C@H]3O)c3ncnc1c23 readout_kind=pIC50 op== measured_value=5.22
compound="CN1N=C(N)c2cn(C3C[C@@H](O)[C@@H](CO)O3)c3ncnc1c23 (some centres not stated)" readout_kind=pIC50 op=< measured_value=4.00
compound="CN1N=C(N)c2cn(C3O[C@H](CO)[C@H]4O[C@H]34)c3ncnc1c23 (some centres not stated)" readout_kind=pIC50 op== measured_value=4.19

* * *

# Test system: KB
# protocol-text: Inhibition of KB cell growth was assessed
# Type: functional, cell-based
# applied-conditions: Homo sapiens
pIC50: −log10 of the molar value.
The reader will find reported pIC50 values listed item by item below.
readout-kind: pIC50

compound=CN1N=C(N)c2cn([C@H]3C=C[C@@H](CO)O3)c3ncnc1c23 readout_kind=pIC50 measured_value="< 4.00"
compound=CN1N=C(N)c2cn([C@H]3CC[C@@H](CO)O3)c3ncnc1c23 readout_kind=pIC50 measured_value="< 4.00"
compound="CN1N=C(N)c2cn([C@@H]3O[C@H](COP(=O)(O)O)[C@@H](O)[C@H]3O)c3ncnc1c23 [TRICIRIBINE PHOSPHATE]" readout_kind=pIC50 measured_value=5.00
compound="CN1N=C(N)c2cn(C3O[C@H](CO)[C@H]4O[C@H]34)c3ncnc1c23 (some centres not stated)" readout_kind=pIC50 measured_value="< 4.00"
compound="C[C@H]1OC(n2cc3c4c(ncnc42)N(C)N=C3N)[C@H](O)[C@@H]1O (some centres not stated)" readout_kind=pIC50 measured_value="< 4.00"
compound=CN1N=C(N)c2cn([C@@H]3O[C@H](CO)C[C@H]3O)c3ncnc1c23 readout_kind=pIC50 measured_value=4.80
compound="CN1N=C(N)c2cn(C3C[C@@H](O)[C@@H](CO)O3)c3ncnc1c23 (some centres not stated)" readout_kind=pIC50 measured_value="< 4.00"
